B1: KCNAB2 (parent)
chain: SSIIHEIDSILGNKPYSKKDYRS

# Variants of: B1
# TEST: protein stability index of a GFP-peptide fusion (GPS, HEK-293T) (PSI 1-6); higher = more stable;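 further: lentivirally expressed fusions sorted by FACS into six bins by GFP to DsRed ratio, PSI derived from sequencing read proportions per bin multiplied by bin number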
# COND: c terminus: native
ASSAY READOUT: protein stability index
Answers are plain numbers.

Example entries and their recorded answers appear below.
MUTATION DESCRIPTOR: I7T
ASSAY READOUT: protein stability index
MEASURED RESULT: 4.7

MUTATION DESCRIPTOR: L11V
ASSAY READOUT: protein stability index
MEASURED RESULT: 3.69

MUTATION DESCRIPTOR: N13F
ASSAY READOUT: protein stability index
MEASURED RESULT: 2.68

MUTATION DESCRIPTOR: E6N
ASSAY READOUT: protein stability index
MEASURED RESULT: 3.65

State recorded protein stability index for all listed variants.
1. K18Q
2. L11Q
3. P15N
4. S1K

Reply:
1: 2.76; 2: 4.91; 3: 3.39; 4: 3.55

State recorded protein stability index for all listed variants.
1. P15T
2. S23V
3. K18Y
4. N13E
5. K14Y
6. N13M
7. E6C
8. I10F

Reply:
3.33
3.68
2.24
2.82
2.32
2.56
1.94
2.32

State recorded protein stability index for all listed variants.
1. D20F
2. G12E
3. I3V
4. Y21R
5. K14M
6. Y21F

Reply:
2.37
3.69
3.61
1.77
2.9
2.52

State recorded protein stability index for all listed variants.
1. K14S
2. P15W
3. G12Y

Reply:
3.49
2.44
2.97

State recorded protein stability index for all listed variants.
1. H5E
2. K14V
3. Y16K
4. Y21H
5. K18M
6. S17E

Reply:
2.7
2.94
2.48
3.15
1.27
3.77
